# ASSAY_EXPLANATION: PSAC antagonists in infected red cells, primary screen, cell-based, P. falciparum Indochina, OD700, 18 h (AID 1157)
# DETAILS: P. falciparum Indochina infected erythrocytes, osmotic lysis OD700, 18 h; higher = more signal, called active from +8 up or from −8 down
Everything with z-score lower than 0.1 is no; everything else, including exactly 0.1, is yes.

Previously resolved entries follow.
- COMPOUND: "O=C1c2ccccc2[C@@]2(Cc3ccccc3N(C3CC3)C2=O)[C@H](c2ccc(CO)cc2)N1Cc1ccccc1C(F)(F)F"
  LABEL_CLASS: "no"
- COMPOUND: "CCN1C(=O)[C@H]2[C@H]3[C@H](O)[C@H](O)CC(=NOCc4ccccc4)[C@@H]3CC[C@H]2C1=O"
  LABEL_CLASS: "no"
- COMPOUND: "CCOC(=O)CCN1C(=O)[C@H]2[C@H]3[C@H](O)C=CC(=O)[C@@H]3CC[C@H]2C1=O"
  LABEL_CLASS: "yes"
- COMPOUND: "CC(=O)OC[C@H]1O[C@H](CCON=C(C)CCN2CCc3nc(-c4ccccc4)c(-c4ccccc4)cc3C2)C=C[C@@H]1OC(C)=O"
  LABEL_CLASS: "yes"
- COMPOUND: "CO[C@H]([C@@H](C)[C@H](OC)c1ccccc1)[C@H](C)[C@@H](OC)[C@H](C)C(C)=O"
  LABEL_CLASS: "yes"

Does CCOc1ccc(N2C(=O)/C(=C/C=C/c3ccccc3OC)S(=O)(=O)C2c2cccc([N+](=O)[O-])c2)cc1 (stereo not drawn) have a reported z-score of at least 0.1?
no

Confirm if z-score reported for the compound `O=C1[C@H]2[C@H]3[C@H](O)[C@H](O)CC(=NO[C@@H]4O[C@H](CO)[C@@H](O)[C@H](O)[C@H]4O)[C@@H]3CC[C@H]2C(=O)N1Cc1ccccc1` is 0.1 or above.
yes

Could you please find out whether CC(CCN1CCCCc2nc(C)c(C)cc21)=NOC(C)CN1CCCCc2nc(C)c(C)cc21 (stereo not drawn) has z-score that meets 0.1 or exceeds it?
yes

---

# ASSAY_EXPLANATION: MM1S cell viability effects, profiling panel, calcein-AM fluorescence, 48 h, basal (AID 1165);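 further: viability of MM1S multiple myeloma cells under basal unstimulated conditions; test concentration not given here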
# DETAILS: higher = more signal
The molecules listed here are annotated with their z-score.
I only need the number, thanks.

Answered cases to consult:
- MOLECULE: "CC(C)(C)N1C(=O)[C@H]2[C@H]3[C@H](O)[C@H](O)CC(=NOCc4ccccc4)[C@@H]3CC[C@H]2C1=O"
  z-score: -0.0096
- MOLECULE: "CCCC=C(CCC)[C@@H](NC(=O)c1ccc(-c2ccccc2)cc1)c1ccc(C(=O)OC)cc1"
  z-score: -0.116
- MOLECULE: "CCc1cc2c(nc1CC)CCN(CCC(C)=NOC(C)CN1CCCc3nc(C)c(C)cc31)C2 (stereo not given)"
  z-score: -2.4
- MOLECULE: "CN(C)CCCNC(=O)[C@@H]1c2ccccc2C(=O)N(Cc2ccccc2)[C@H]1c1ccc(CO)cc1"
  z-score: -0.0214
- MOLECULE: "CC(C)(C)N1CC=CC23O[C@@H]4C=CCCOC(=O)C4[C@H]2C(=O)N(CCCCCO)[C@@H]3C1=O (stereo not given in full)"
  z-score: 1.87

Sample `O=C1[C@H]2[C@H]3[C@H](O)[C@H](O)CC(=NOCc4ccccc4)[C@H]3CC[C@H]2C(=O)N1C[C@@H]1CCCO1` — what was its z-score?
-0.306

For the molecule shown here, `O=C(NN=C1C[C@@H](O)[C@@H](O)[C@@H]2[C@@H]3C(=O)N(c4cccc(Oc5ccccc5)c4)C(=O)[C@@H]3CC[C@@H]12)OCc1ccccc1` , give the reported z-score.
-0.0408

Request the reported z-score associated with `CO[C@H]1O[C@H](CO)[C@@H](OC(=O)Nc2ccc(C#N)cc2)[C@H](OC(=O)c2cc3ccccc3[nH]2)[C@H]1OC(=O)c1cc2ccccc2[nH]1`
-2.28

Cited source for all entries: PubChem BioAssay
